Taken from ChEMBL document CHEMBL1139584.

The reader will find pKi measurements below, all made with Somatostatin receptor type 1 (Homo sapiens, UniProt P30872).
Sequence (P30872 whole entry): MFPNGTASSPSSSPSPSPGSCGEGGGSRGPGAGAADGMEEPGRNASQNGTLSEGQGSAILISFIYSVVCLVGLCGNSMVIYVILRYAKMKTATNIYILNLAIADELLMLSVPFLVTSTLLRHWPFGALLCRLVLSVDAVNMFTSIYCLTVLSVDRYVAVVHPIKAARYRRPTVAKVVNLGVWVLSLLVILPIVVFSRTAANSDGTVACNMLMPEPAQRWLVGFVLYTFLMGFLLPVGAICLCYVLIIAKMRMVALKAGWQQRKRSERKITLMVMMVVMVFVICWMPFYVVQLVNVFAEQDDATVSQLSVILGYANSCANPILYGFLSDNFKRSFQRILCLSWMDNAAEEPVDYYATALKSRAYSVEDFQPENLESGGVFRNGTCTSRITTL
// pKi: -log10(molar conc.)

Cc1cccc2c(C(=O)CCSc3nnc(-c4ccc5ccccc5n4)n3CCCCN)c[nH]c12    6.28

Here is the next item to consider.
Query the reported pKi for Somatostatin receptor type 1 (Homo sapiens, UniProt P30872); item: `NCCCCn1c(SCCc2c[nH]c3cc(F)ccc23)nnc1-c1ccc2ccccc2n1`
7.24

----------
tgt: Somatostatin receptor type 2 (Homo sapiens, UniProt P30874)
Sequence (P30874 whole entry): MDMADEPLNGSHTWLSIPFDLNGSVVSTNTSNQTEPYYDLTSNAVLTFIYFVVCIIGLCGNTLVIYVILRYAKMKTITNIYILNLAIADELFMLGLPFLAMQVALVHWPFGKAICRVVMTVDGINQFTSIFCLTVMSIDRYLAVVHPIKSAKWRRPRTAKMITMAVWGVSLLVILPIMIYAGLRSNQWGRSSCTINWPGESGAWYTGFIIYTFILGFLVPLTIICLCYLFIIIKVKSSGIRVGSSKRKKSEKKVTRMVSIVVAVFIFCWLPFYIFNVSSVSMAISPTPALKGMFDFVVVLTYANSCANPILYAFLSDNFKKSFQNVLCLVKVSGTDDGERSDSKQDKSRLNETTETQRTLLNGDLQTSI
measuredAttribute: pKi
// pKi: -log10(molar conc.)

NCCCCn1c(SCCc2c[nH]c3ccccc23)nnc1-c1cnc2ccccc2n1    7.49
NCCCCn1c(SCCc2c[nH]c3ccccc23)nnc1-c1ccc2cc(F)ccc2n1    7.92
Cc1cccc2c(CCSc3nnc(-c4ccc5ccccc5n4)n3CCCCN)c[nH]c12    8.74

Query the reported pKi for Somatostatin receptor type 2 (Homo sapiens, UniProt P30874); item: `NCCCCn1c(SCCc2c[nH]c3ccccc23)nnc1-c1ccc2ccccc2c1`
7.00

Query the reported pKi for Somatostatin receptor type 2 (Homo sapiens, UniProt P30874); item: `NCCCCn1c(SCCc2c[nH]c3ccccc23)nnc1-c1cc2ccccc2s1`
6.80
